Listed here: items and their measured self-cleavage.
B1: LINE1-full (parent)
chain: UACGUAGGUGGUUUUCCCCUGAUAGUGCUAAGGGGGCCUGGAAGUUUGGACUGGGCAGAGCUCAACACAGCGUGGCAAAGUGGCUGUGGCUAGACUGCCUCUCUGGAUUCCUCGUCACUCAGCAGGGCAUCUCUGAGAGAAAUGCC

- Variants of: B1
- ASSAY_NAME: self-cleavage, relative activity (ratio to wild type); higher = more cleavage; in vitro, sequencing; the parent is a self-cleaving ribozyme
Quick one: just the number, no unit, thanks!

C37U G86A = 0.1

Okay, next one:
Qu. Look up self-cleavage for this variant: U47G A142C
Ans. 1.25

Where these numbers come from: the RNAGym collection of RNA variant scans (doi:10.7554/elife.90254)
